# Test target: T1, Reck-CK-Fc
# T1 chain: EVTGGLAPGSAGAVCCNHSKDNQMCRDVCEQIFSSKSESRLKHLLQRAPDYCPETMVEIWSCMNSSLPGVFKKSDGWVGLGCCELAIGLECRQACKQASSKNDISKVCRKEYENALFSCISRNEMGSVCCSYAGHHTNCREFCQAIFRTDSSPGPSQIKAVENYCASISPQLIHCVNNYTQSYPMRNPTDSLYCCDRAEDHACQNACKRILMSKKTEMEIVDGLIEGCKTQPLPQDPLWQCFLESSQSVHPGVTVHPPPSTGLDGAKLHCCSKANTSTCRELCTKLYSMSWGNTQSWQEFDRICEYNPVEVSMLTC
# Experiment notes: isothermal titration calorimetry with Reck-CK-Fc, 25 °C
Measured attribute: Kd (nM)
Your answer should be a plain number; it is taken to be in nM.

input: Endpoint output: Kd of VEVVRASRLRQPTFLRIKQLRSYQKPMET (also called synthetic Wnt7b linker peptide) [pWnt7b] . Value?
output: 1200
